pIC50: −log10 of the molar value.
Form: system (FGFR1 (Homo sapiens (Human), UniProt P11362)), quantity (pIC50), values below.
measured attribute: pIC50

>>> df
                               input_smiles  measured_attribute  recorded_result
0  C=CC(=O)N1CC[C@H](n2nc(C#Cc3cc4ncn(CC)c4cc3F)c3c(N)ncc(C(=O)CC)c32)C1               pIC50             8.33
1  C=CC(=O)N1CC[C@H](n2nc(C#Cc3cc4nc(C)n(C5CC5)c4cc3Cl)c3c(N)ncc(C(C)=O)c32)C1               pIC50             8.26
2  [2H]C([2H])([2H])n1cnc2cc(C#Cc3nn([C@H]4CCN(C(=O)C=C)C4)c4c(-c5nccs5)cnc(N)c34)c(F)cc21               pIC50             8.24
